Protocol description: viability of PTEN-null HCT116 cells – cell-based, HCT116 clonal line, CellTiter-Glo, pilot screen (AID 824);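 also: 0% = 20 µM Hyamine control and 100% = vehicle cell control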
Particulars: HCT116 PTEN-deleted viability, 60 h, at 10 µM, stronger effect = lower value
Records with an inconclusive call do not appear.
Measured attribute: viability (%)

{"columns": ["Compound", "Measured attribute", "Endpoint value"],
 "data": [
  ["COc1ccccc1NC(=O)C1=C(C)Nc2nnnn2C1c1cccc(C)c1 (stereo not drawn)", "viability", 80.8],
  ["CCCn1c(OC)nc2c1c(=O)n(C)c(=O)n2C", "viability", 97],
  ["CCCOc1ccc(C2C(C(=O)OC)=CN(CCOC)C=C2C(=O)OC)cc1", "viability", 84.4],
  ["N#Cc1nc(-c2ccc(F)cc2)oc1NCCN1CCOCC1", "viability", 92.3],
  ["COc1ccc(N(CC(=O)Nc2ccc3c(c2)OCO3)S(=O)(=O)c2ccccc2)c(OC)c1", "viability", 75.6],
  ["CCOC(=O)C1=C(C)NC(=O)NC1c1ccc(OCCO)c(OC)c1 (stereo not drawn)", "viability", 100],
  ["CCN(CC)C(=O)Oc1ccccc1NC(C)=O", "viability", 96.1],
  ["CCCCCCn1c(SCCOC)nc2c1c(=O)[nH]c(=O)n2C", "viability", 85],
  ["COc1c(Cl)cc(-c2noc(C)c2C(=O)NC(C)C)cc1Cl", "viability", 96.4],
  ["CCOC(=O)CN1CC23C=CC(O2)C(C(=O)Nc2ccc(C(C)=O)cc2)C3C1=O (stereo not drawn)", "viability", 94.2],
  ["CC(=O)Nc1cccc(NC(=O)c2ccco2)c1", "viability", 98.1],
  ["Cc1c(N=C/C=C/c2ccccc2)cnn1C", "viability", 90.5],
  ["CC(C)(C)NC(=O)Cn1c(=O)oc2ccc(Cl)cc21", "viability", 100],
  ["Cc1nn(C(=O)c2ccoc2C)c(N)c1-c1ccccc1", "viability", 84.3],
  ["N#CCn1nnc(-c2ccc3c(c2)OCO3)n1", "viability", 103],
  ["CC(=O)NC(C)C(=O)OCC(=O)Nc1ccc(Br)cc1 (stereo not drawn)", "viability", 100],
  ["Cc1ccc(CNC(=O)C2CCCN(S(=O)(=O)c3cnc[nH]3)C2)cc1 (stereo not drawn)", "viability", 102],
  ["CCOc1ccc(-n2nnc3c(=O)n(CC(=O)c4ccccc4)cnc32)cc1", "viability", 97],
  ["O=C(CSc1ccc2nnc(-c3cccnc3)n2n1)N1CCc2ccccc21", "viability", 94.1],
  ["CN1CCN(c2cc3c(c4c2[nH]c2ccccc24)C(=O)CC(C)(C)C3)CC1", "viability", 1.58],
  ["CC1CCN(c2nc3c(c(=O)[nH]c(=O)n3C)n2CCSc2ncccn2)CC1", "viability", 102],
  ["CCOC(=O)Cn1c(CCC(=O)O)ccc1-c1ccc(F)cc1", "viability", 101],
  ["Cc1ccccc1Cn1nc(C)c(NC(=O)c2noc3c2CCc2ccccc2-3)c1C", "viability", 85.2]
]}

---

Parameter: RAM network inhibition. Scope: all listed entries.
Protocol description: RAM signaling pathway blockade in yeast – S. cerevisiae, Pdr1DBD-CYC8 efflux-inhibited sensitized strain, primary screen (AID 1298);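 also: 0% = DMSO untreated cells without growth and 100% = 10 µM 1-NA-PP1 full growth; higher means more yeast growth rescued from 5-FOA killing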
Particulars: S. cerevisiae cbk1-as DSE1-URA3 strain, 5-FOA growth OD615, 2 d; at 50 µM; stronger effect = higher value
Measured attribute: RAM network inhibition (%)

{"columns": ["Molecule", "Measured attribute", "Endpoint value"],
 "data": [
  ["Cc1cc(NC(=O)CSc2c3c(nc4ccccc24)CCC3)no1", "RAM network inhibition", 2.01],
  ["Cc1cc(C)cc(OCCCCCNCCO)c1", "RAM network inhibition", 2.47],
  ["CCN(CC)CCNC(=O)c1cc2c(-c3ccc(Cl)cc3)nn(C)c2s1", "RAM network inhibition", 4.19],
  ["CC(=O)Nc1nnc(SCC(=O)NCC2CCCO2)s1 (stereo unspecified)", "RAM network inhibition", -0.72],
  ["Cc1ccc(C)c(S(=O)(=O)n2cnc3ccccc32)c1", "RAM network inhibition", 2.15],
  ["CCOC(=O)c1[nH]c(C)c(C(=O)OCC)c1C", "RAM network inhibition", 4.06]
]}

meta.source: PubChem BioAssay
